Target: UniProt O00141
Sequence (O00141 whole entry): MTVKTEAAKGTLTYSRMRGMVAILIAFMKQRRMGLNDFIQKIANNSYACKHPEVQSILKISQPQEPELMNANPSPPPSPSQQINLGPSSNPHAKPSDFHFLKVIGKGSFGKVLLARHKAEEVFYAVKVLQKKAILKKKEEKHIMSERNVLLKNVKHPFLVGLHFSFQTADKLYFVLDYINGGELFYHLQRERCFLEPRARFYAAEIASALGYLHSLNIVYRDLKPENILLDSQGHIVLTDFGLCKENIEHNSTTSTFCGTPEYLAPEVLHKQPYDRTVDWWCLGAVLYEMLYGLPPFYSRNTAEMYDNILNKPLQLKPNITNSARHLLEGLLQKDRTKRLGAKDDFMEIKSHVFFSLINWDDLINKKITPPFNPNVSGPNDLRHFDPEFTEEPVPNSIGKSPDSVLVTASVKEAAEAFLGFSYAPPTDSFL
Experiment: Kinase panel profiling at 1 µmol/L (MSA or IMAP), percentage inhibition
Type: biochemical
Conditions: kinase SGK; 1 µmol/L single concentration; read-out: %-inhibition at 1 µmol/L, SGK
# Lookup of reported inhibition at 1 µM keyed by entry
Hi! Could you send only the number? It should be in %, unit omitted.

>>> observed("CCN1C(=O)N(c2c(F)c(OC)cc(OC)c2F)Cc2cnc3[nH]c(CN4CCOCC4)cc3c21")
5
>>> observed("FC(F)(F)c1ccc(CNc2ccc(Cc3c[nH]c4ncc(Cl)cc34)cn2)cn1")
11
>>> observed("CO[C@]1(C(=O)N[C@@H](C)c2ccc(-n3cc(F)cn3)nc2)CC[C@H](c2nc(C)cc(Nc3cc(C)[nH]n3)n2)CC1")
7
>>> observed("C[C@H]1Oc2cc(cnc2N)-c2c(nn(C)c2C#N)CN(C)C(=O)c2ccc(F)cc21")
-0.181
>>> observed("Cc1nc(NC(=O)N2CCC[C@H]2C(N)=O)sc1-c1ccnc(C(C)(C)C(F)(F)F)c1")
-5.64

I'd like to know its inhibition at 1 µM. The molecule in question is `C=CC(=O)N1CCC([C@@H]2CCNc3c(C(N)=O)c(-c4ccc(Oc5ccccc5)cc4)nn32)CC1`
-0.675

Item `Cn1cnc2c(F)c(Nc3ccc(Br)cc3Cl)c(C(=O)NOCCO)cc21` has what recorded inhibition at 1 µM?
1.83

Form field: reported inhibition at 1 µM of `Cn1cnc2c(F)c(Nc3ccc(Br)cc3F)c(C(=O)NOCCO)cc21`
5

###

inhibition at 1 µM values for the compounds below.
Molecular target: panel of 255 wild-type kinases (Homo sapiens, UniProt P09619)
Sequence (P09619 33-1106): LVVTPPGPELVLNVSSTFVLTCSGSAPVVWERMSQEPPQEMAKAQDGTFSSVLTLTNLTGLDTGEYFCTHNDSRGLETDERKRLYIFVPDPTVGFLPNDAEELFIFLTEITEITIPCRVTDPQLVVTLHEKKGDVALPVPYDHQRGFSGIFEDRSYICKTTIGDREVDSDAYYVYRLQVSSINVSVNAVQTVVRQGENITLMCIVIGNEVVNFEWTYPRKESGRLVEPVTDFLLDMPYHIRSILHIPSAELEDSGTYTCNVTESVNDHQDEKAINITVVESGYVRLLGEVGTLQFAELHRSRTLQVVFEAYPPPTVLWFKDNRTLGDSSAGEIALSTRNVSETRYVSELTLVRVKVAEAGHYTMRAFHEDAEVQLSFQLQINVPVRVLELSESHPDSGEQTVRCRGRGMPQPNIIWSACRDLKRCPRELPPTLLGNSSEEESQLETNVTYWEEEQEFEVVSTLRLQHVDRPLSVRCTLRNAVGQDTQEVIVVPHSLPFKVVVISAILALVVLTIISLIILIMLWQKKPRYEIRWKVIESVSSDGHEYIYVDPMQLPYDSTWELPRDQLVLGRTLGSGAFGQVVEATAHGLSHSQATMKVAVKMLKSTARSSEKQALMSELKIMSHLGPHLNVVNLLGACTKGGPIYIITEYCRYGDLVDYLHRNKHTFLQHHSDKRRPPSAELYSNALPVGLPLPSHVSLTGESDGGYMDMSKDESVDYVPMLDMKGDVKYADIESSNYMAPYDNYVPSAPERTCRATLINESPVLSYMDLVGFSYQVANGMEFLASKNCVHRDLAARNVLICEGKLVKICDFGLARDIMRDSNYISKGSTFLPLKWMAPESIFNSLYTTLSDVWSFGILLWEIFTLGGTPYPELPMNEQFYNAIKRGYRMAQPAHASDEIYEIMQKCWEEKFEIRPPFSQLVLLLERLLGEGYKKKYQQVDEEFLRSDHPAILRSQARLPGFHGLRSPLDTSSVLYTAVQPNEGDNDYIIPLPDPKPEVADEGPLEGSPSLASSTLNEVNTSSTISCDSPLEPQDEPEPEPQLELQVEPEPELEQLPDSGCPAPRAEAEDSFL
Assay: Kinase panel profiling at 1 µmol/L (MSA or IMAP), percentage inhibition
Assay type: biochemical
Conditions: kinase PDGFRβ; 1 µmol/L single concentration; read-out: %-inhibition at 1 µmol/L, PDGFRβ
Give just the numeric value; % need not be written.

>>> observed("FC(F)(F)c1ccc(CNc2ccc(Cc3c[nH]c4ncc(Cl)cc34)cn2)cn1 [pexidartinib]")
64

Missing value: inhibition at 1 µM, panel of 255 wild-type kinases (Homo sapiens, UniProt P09619), entry CCN1CCN(c2ccc(Nc3cc(N(C)C(=O)Nc4c(Cl)c(OC)cc(OC)c4Cl)ncn3)cc2)CC1 [infigratinib] . Fill in?
59

Could you share what inhibition at 1 µM was measured for COc1cc2ncnc(Nc3ccc(F)c(Cl)c3)c2cc1NC(=O)/C=C/CN1CCCCC1 [dacomitinib] , tested on panel of 255 wild-type kinases (Homo sapiens, UniProt P09619)?
68

State its inhibition at 1 µM on panel of 255 wild-type kinases (Homo sapiens, UniProt P09619): C[C@H](Nc1ncnc2nc[nH]c12)c1cc2cccc(Cl)c2c(=O)n1-c1ccccc1 [duvelisib]
2

Entry C=CC(=O)N1CCC([C@@H]2CCNc3c(C(N)=O)c(-c4ccc(Oc5ccccc5)cc4)nn32)CC1 [zanubrutinib] , system panel of 255 wild-type kinases (Homo sapiens, UniProt P09619): what inhibition at 1 µM was measured?
3.39

So what inhibition at 1 µM did Cn1cnc2c(F)c(Nc3ccc(Br)cc3Cl)c(C(=O)NOCCO)cc21 [selumetinib] get with panel of 255 wild-type kinases (Homo sapiens, UniProt P09619)?
20

Give recorded inhibition at 1 µM with panel of 255 wild-type kinases (Homo sapiens, UniProt P09619) for the following compound: Cc1nc(NC(=O)N2CCC[C@H]2C(N)=O)sc1-c1ccnc(C(C)(C)C(F)(F)F)c1 [alpelisib]
0.0362

Requested read-out inhibition at 1 µM, target or system panel of 255 wild-type kinases (Homo sapiens, UniProt P09619), entry COC(=O)N[C@@H](C)CNc1nccc(-c2cn(C(C)C)nc2-c2cc(Cl)cc(NS(C)(=O)=O)c2F)n1 [encorafenib]
1.38

###

Listed below: inhibition at 1 µM values for each entry.
Biological target: panel of 255 wild-type kinases (Homo sapiens)
Sequence (Q14164 1-716): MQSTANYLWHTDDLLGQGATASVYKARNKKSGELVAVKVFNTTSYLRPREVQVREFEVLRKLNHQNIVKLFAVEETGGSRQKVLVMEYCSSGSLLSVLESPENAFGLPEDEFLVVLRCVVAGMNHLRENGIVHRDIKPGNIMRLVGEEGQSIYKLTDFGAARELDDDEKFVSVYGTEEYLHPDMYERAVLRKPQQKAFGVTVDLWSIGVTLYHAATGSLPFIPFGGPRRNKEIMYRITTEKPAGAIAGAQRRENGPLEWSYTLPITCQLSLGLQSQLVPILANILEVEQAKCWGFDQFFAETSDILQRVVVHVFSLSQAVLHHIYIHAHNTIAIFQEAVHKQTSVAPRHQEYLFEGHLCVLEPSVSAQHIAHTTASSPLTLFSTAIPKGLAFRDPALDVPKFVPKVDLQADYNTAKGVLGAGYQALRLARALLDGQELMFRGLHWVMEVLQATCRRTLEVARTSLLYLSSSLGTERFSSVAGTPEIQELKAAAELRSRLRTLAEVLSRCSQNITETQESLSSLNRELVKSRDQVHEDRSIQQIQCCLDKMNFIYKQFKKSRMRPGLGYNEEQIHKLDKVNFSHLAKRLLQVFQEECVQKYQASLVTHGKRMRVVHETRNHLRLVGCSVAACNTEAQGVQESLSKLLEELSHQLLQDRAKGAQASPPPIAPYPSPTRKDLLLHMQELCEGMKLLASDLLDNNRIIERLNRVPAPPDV
Experiment: Kinase panel profiling at 1 µmol/L (MSA or IMAP), percentage inhibition
Format: biochemical
Conditions: kinase IKKε; 1 µmol/L single concentration; read-out: %-inhibition at 1 µmol/L, IKKε
State just the number; it will be interpreted in %.

>>> observed("CCN1C(=O)N(c2c(F)c(OC)cc(OC)c2F)Cc2cnc3[nH]c(CN4CCOCC4)cc3c21 [pemigatinib]")
8.49
>>> observed("Cc1cc(Nc2ncnc3ccc(NC4=NC(C)(C)CO4)cc23)ccc1Oc1ccn2ncnc2c1 [tucatinib]")
-2.62
>>> observed("C[C@H](Nc1ncnc2nc[nH]c12)c1cc2cccc(Cl)c2c(=O)n1-c1ccccc1 [duvelisib]")
-0.56

Form field: reported inhibition at 1 µM of CCN1CCN(c2ccc(Nc3cc(N(C)C(=O)Nc4c(Cl)c(OC)cc(OC)c4Cl)ncn3)cc2)CC1 [infigratinib]
-6

###

Target: panel of 255 wild-type kinases (Homo sapiens, UniProt P24941)
Assay: Kinase panel profiling at 1 µmol/L (MSA or IMAP), percentage inhibition
Assay type: biochemical
Settings: CDK2/CycA2 kinase assay; 1 µmol/L single concentration; read-out: %-inhibition CDK2/CycA2
MEASURE: inhibition at 1 µM (%)
Output spec: scalar in %, unitless text.

>>> observed("C=CC(=O)N1CCC([C@@H]2CCNc3c(C(N)=O)c(-c4ccc(Oc5ccccc5)cc4)nn32)CC1")
-2.82
>>> observed("CCn1c(=O)c(-c2cc(NC(=O)Nc3ccccc3)c(F)cc2Br)cc2cnc(NC)cc21")
-11
>>> observed("O=C(Nc1cnn2ccc(N3CCC[C@@H]3c3cc(F)ccc3F)nc12)N1CC[C@H](O)C1")
-2.44

Please turn your attention to the following entry.
What does the data say about its inhibition at 1 µM? Entry: `Cn1cnc2c(F)c(Nc3ccc(Br)cc3Cl)c(C(=O)NOCCO)cc21`
1.44

###

Target: panel of 255 wild-type kinases (Homo sapiens, UniProt Q96BR1)
Sequence (Q96BR1 whole entry): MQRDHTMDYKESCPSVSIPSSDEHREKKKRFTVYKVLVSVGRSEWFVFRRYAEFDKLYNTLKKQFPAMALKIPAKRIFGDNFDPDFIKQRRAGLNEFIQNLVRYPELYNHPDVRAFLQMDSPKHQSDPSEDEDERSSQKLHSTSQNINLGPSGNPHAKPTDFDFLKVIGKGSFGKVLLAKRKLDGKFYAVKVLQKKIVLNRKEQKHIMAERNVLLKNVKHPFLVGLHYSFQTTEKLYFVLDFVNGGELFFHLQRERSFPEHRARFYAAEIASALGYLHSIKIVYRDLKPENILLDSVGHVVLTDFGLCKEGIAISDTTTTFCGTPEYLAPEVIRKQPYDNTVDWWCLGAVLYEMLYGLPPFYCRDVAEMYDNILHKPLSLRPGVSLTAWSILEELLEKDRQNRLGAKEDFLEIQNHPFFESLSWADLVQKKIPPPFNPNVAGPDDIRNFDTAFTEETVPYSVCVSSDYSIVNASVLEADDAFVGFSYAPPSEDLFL
Assay: Kinase panel profiling at 1 µmol/L (MSA or IMAP), percentage inhibition
Assay type: biochemical
Conditions: kinase SGK3; 1 µmol/L single concentration; read-out: %-inhibition at 1 µmol/L, SGK3
MEASURE: inhibition at 1 µM (%)
Please reply with the bare figure in % and do not write the unit itself.

Please review the following examples before continuing.
>>> observed("CCN1CCN(c2ccc(Nc3cc(N(C)C(=O)Nc4c(Cl)c(OC)cc(OC)c4Cl)ncn3)cc2)CC1")
-3
>>> observed("Cn1cc(-c2cc3c(N4CCN(c5ncc([C@@](C)(N)c6ccc(F)cc6)cn5)CC4)ncnn3c2)cn1")
-2

Using the record for `CN1CCN(c2ccc(C(=O)Nc3n[nH]c4ccc(Cc5cc(F)cc(F)c5)cc34)c(NC3CCOCC3)c2)CC1` , report its inhibition at 1 µM.
0.413

Name the recorded inhibition at 1 µM for `CCn1c(=O)c(-c2cc(NC(=O)Nc3ccccc3)c(F)cc2Br)cc2cnc(NC)cc21` .
-9

GET /values?readout=inhibition at 1 µM&item= `COC(=O)N[C@@H](C)CNc1nccc(-c2cn(C(C)C)nc2-c2cc(Cl)cc(NS(C)(=O)=O)c2F)n1`
5

Which inhibition at 1 µM value belongs to `Cc1nc(NC(=O)N2CCC[C@H]2C(N)=O)sc1-c1ccnc(C(C)(C)C(F)(F)F)c1` ?
1.47

###

Target: panel of 255 wild-type kinases (Homo sapiens)
Test: Kinase panel profiling at 1 µmol/L (MSA or IMAP), percentage inhibition
Type: biochemical
Settings: CaMK2δ kinase assay; 1 µmol/L single concentration; read-out: %-inhibition CaMK2δ
MEASURE: inhibition at 1 µM (%)
Write down the numeric answer in % and omit the unit.

>>> observed("Cn1cc(-c2cc3c(N4CCN(c5ncc([C@@](C)(N)c6ccc(F)cc6)cn5)CC4)ncnn3c2)cn1 [avapritinib]")
-2.56
>>> observed("C=CC(=O)N1CCC([C@@H]2CCNc3c(C(N)=O)c(-c4ccc(Oc5ccccc5)cc4)nn32)CC1 [zanubrutinib]")
3
>>> observed("O=C(Nc1cnn2ccc(N3CCC[C@@H]3c3cc(F)ccc3F)nc12)N1CC[C@H](O)C1 [larotrectinib]")
6
>>> observed("FC(F)(F)c1ccc(CNc2ccc(Cc3c[nH]c4ncc(Cl)cc34)cn2)cn1 [pexidartinib]")
5.41
>>> observed("CN1CCN(c2ccc(C(=O)Nc3n[nH]c4ccc(Cc5cc(F)cc(F)c5)cc34)c(NC3CCOCC3)c2)CC1 [entrectinib]")
28

Look up inhibition at 1 µM for this compound: Cc1nc(NC(=O)N2CCC[C@H]2C(N)=O)sc1-c1ccnc(C(C)(C)C(F)(F)F)c1 [alpelisib]
0.814

# query: inhibition at 1 µM of entry C[C@H]1Oc2cc(cnc2N)-c2c(nn(C)c2C#N)CN(C)C(=O)c2ccc(F)cc21 [lorlatinib]
36
